The values you see were collected from PubChem BioAssay AID1159580.

# protocol.description: chemical genetic growth profiling, strain panel (AID 1159580);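 also: tested at 20 µM; growth read once vehicle control cultures reached saturation at 30 °C; 1 = growth at the plate median or of vehicle wells; lower values mean less growth of the strain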
# run.parameters: S. cerevisiae deletion strains, growth OD, locus YPL051W, strain arl3, active compounds read low
The campaign covered roughly 5,500 compounds. About 2,000 (36%) were called active. Another 18% or so got no clear call; they are omitted. The list shows a part of the results.
reported.endpoint: normalized growth
Respond using a number only.

// normalized growth value for C=CCS(=O)C[C@H](N)C(=O)O (some centres not stated) : 0.983

// normalized growth value for COc1ccnc(CS(=O)c2nc3ccc(OC(F)F)cc3[nH]2)c1OC (configuration not stated) : 1

Lab book: normalized growth of "Cc1nnc(NS(=O)(=O)c2ccc(N)cc2)s1" noted as 1

Note to self: normalized growth recorded for CN(C)CCC(c1ccccc1)c1ccccn1 (configuration not stated) was 1.01

Reported normalized growth for "Cc1onc(-c2ccccc2)c1-c1ccc(S(N)(=O)=O)cc1" was 1.01

Measured normalized growth of "COc1cc(NS(C)(=O)=O)ccc1Cc1c2ccccc2nc2ccccc12" : 0.992

Entry COc1ccc2nc(S(=O)Cc3ncc(C)c(OC)c3C)[nH]c2c1 (configuration not stated) ; normalized growth = 0.846

Per the record, "O=C1CCCN1CC#CCN1CCCC1" has normalized growth of 1.02

// sample "Fc1ccc([C@@H]2CCNC[C@H]2COc2ccc3c(c2)OCO3)cc1" , its normalized growth was 1

// normalized growth lookup, compound = COC(=O)C1=COC(C)C2CN3CCC4(C(=O)Nc5ccccc54)C3CC12 (configuration not stated) , result: 1.01

Lab note: measured normalized growth of COc1ccc2c(c1)OCC(Cc1ccc(OC)c(OC)c1)C2=O (configuration not stated) was 0.922

The compound identified as O=C(O)CCC1NCC2CC1CN1CCCCC21 (configuration not stated) registered its normalized growth at 0.982

----------
# protocol.description: chemical genetic growth profiling, strain panel (AID 1159580);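 also: tested at 20 µM; growth read once vehicle control cultures reached saturation at 30 °C; 1 = growth at the plate median or of vehicle wells; lower values mean less growth of the strain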
# run.parameters: S. cerevisiae deletion strains, growth OD, locus YDR297W, strain sur2, active compounds read low
In all, about 5,500 compounds went through this assay and about 2,000 (36%) were called active. About 18% were inconclusive and are not listed. The list shows a part of the results.
reported.endpoint: normalized growth

Form field normalized growth, entry COC(=O)C1=COC(C)C2CN3CCC4(C(=O)Nc5ccccc54)C3CC12 (stereo unspecified) : 1.02 (inactive)

Lookup result for "COC(=O)[C@H](c1ccccc1Cl)N1CCc2sccc2C1" ; measured normalized growth: 0.983 (inactive)

Entry "COc1ccc2oc3ccccc3c(=O)c2c1" ; normalized growth = 0.935 (inactive)

// recorded normalized growth for CC(=O)O[C@H]1CC[C@@]2(C)C(C[C@@H](OC(C)=O)[C@]3(C)C2CC[C@@]2(C)[C@H](c4ccoc4)OC(=O)[C@H]4O[C@]423)C1(C)C (stereo partly specified) : 0.999 (inactive)

For reference, reported normalized growth for "C1N2CN3CN1CN(C2)C3" stands at 0.986 (inactive)

Form: molecule = O=C(O)C(O)C(O)C(=O)O (stereo unspecified) ; normalized growth = 0.99 (inactive)

// CN(C)CCC(c1ccccc1)c1ccccn1 (stereo unspecified) : normalized growth value = 1 (inactive)

// recorded normalized growth for "CCCNC(=O)NS(=O)(=O)c1ccc(Cl)cc1" : 1.02 (inactive)

Short answer for O=c1cccc2n1CC1CC2CN2CCCC[C@@H]12 (stereo partly specified) : normalized growth was 0.977 (inactive)

In plain terms, CC(=O)O[C@@H]1CC2C(C)(C)[C@@H](O)CC[C@]2(C)C2CC[C@@]3(C)[C@H](c4ccoc4)OC(=O)[C@H]4O[C@]43[C@@]21C (stereo partly specified) has a documented normalized growth of 1.01 (inactive)

normalized growth reported for this molecule "CC(C)c1nc(N(C)S(C)(=O)=O)nc(-c2ccc(F)cc2)c1/C=C/[C@@H](O)C[C@@H](O)CC(=O)O" : 0.977 (inactive)

CC(=O)O[C@H]1C[C@@H](OC(C)=O)C(C)(C)C2C[C@@H](O)[C@]3(C)C(CC[C@@]4(C)[C@H](c5ccoc5)OC(=O)[C@H]5O[C@]543)[C@]21C (stereo partly specified) has a reported normalized growth of 0.992 (inactive)

Entry under test: "CC(=O)OC/C=C(\C)CC/C=C(\C)CC/C=C(\C)CC/C=C(\C)CC/C=C(\C)CC/C=C(\C)CC/C=C(\C)CC/C=C(\C)CCC=C(C)C" . Its normalized growth was 0.993 (inactive)

# normalized growth of "Clc1ccccc1CN1CCc2sccc2C1" = 1.01 (inactive)

The molecule listed as "Fc1ccc([C@@H]2CCNC[C@H]2COc2ccc3c(c2)OCO3)cc1" has a reported normalized growth of 0.998 (inactive)

# molecule NC(=O)CS(=O)C(c1ccccc1)c1ccccc1 (stereo unspecified) ; its normalized growth = 0.994 (inactive)

The reported normalized growth of the molecule "COc1ccc(-c2oc3cc(OC)c(OC)c(OC)c3c(=O)c2OC)cc1" was 0.976 (inactive)

Sure, the documented normalized growth for "CN(C)C(=O)Oc1ccc[n+](C)c1" is 0.999 (inactive)

// "FC(F)(F)c1cccc(N2CCNCC2)c1" : normalized growth value = 1 (inactive)

The reported value for Clc1ccc(C(c2ccccc2Cl)C(Cl)Cl)cc1 (stereo unspecified) in terms of normalized growth is 0.956 (inactive)

The molecule listed as CC(=O)OCC(=O)[C@@]1(O)CCC2C3CCC4=CC(=O)C=CC4(C)C3[C@@H](O)C[C@@]21C (stereo partly specified) shows normalized growth equal to 0.992 (inactive)
